- ASSAY_COMMENT: Beagle dog PK study 1 of Example 101 (propylene glycol-based formulation, IV and PO), with clinical observations
- Type: in vivo
- CONDITIONS_USED: beagle, dog, plasma, po, 5 mg/kg, dog PK study 1, oral, Test Animal 3
RECORDED_METRIC: Cmax (ng/mL)
Supply the numeric figure in ng/mL, leaving out any unit text.

Need Cmax, item CNC(=O)c1[nH]c(C(=O)NC2CCC2)cc1O[C@@H](C)c1ccccc1 (stereo in doubt) [Example 101]
2240

###

- ASSAY_COMMENT: Beagle dog PK study 1 of Example 101 (propylene glycol-based formulation, IV and PO), with clinical observations
- Assay type: in vivo
- CONDITIONS_USED: beagle, dog, plasma, iv, 1 mg/kg, dog PK study 1, IV, 4 h, mean; read-out: Average plasma concentration, Mean
RECORDED_METRIC: concentration at 4 h (ng/mL)
Value expressed in ng/mL; do not type the unit.

If you can, please state the reported concentration at 4 h value of CNC(=O)c1[nH]c(C(=O)NC2CCC2)cc1O[C@@H](C)c1ccccc1 (stereo in doubt) [Example 101] .
68.7

###

- ASSAY_COMMENT: Beagle dog PK study 2 of Example 101 (HPβCD based formulation, IV), with clinical observations
- Assay type: in vivo
- CONDITIONS_USED: beagle, dog, plasma, iv, 1 mg/kg, dog PK study 2, IV 1 mg/kg, HPβCD, 0.25 h, Test Animal 3; read-out: Plasma concentration
RECORDED_METRIC: concentration at 0.25 h
Answer format reminder: number followed by unit.

I am curious: what concentration at 0.25 h value has been reported for CNC(=O)c1[nH]c(C(=O)NC2CCC2)cc1O[C@@H](C)c1ccccc1 (stereo in doubt) ?
985 ng/mL

###

- TEST_TARGET: BRD4 BD2 (Homo sapiens (Human))
- ASSAY_COMMENT: NanoBRET bromodomain assay, NanoLuc-BRD4-BD2 fusion in HEK293 cells;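 also: tracer displacement BRET read in transfected cells after 2 h compound exposure at 37 °C, signal in milliBRET units corrected against no-tracer background wells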
- CONDITIONS_USED: IC50 for BRD4 BD1 divided by IC50 for BRD4 BD2; qualitative if an IC50 is at the upper limit
RECORDED_METRIC: Fold selectivity

Consider the following illustrative entries.
MOLECULE	RECORDED_METRIC	RESULT
CNC(=O)c1[nH]c(C(=O)NCC(F)(F)F)cc1O[C@@H](C)c1ccc(Cl)cc1	Fold selectivity	XX (Fold >50 and ≤200)
CNC(=O)c1[nH]c(C(=O)NC(C)(C)C)cc1O[C@@H](C)c1ccccc1	Fold selectivity	X (Fold >2 and ≤50)
CNC(=O)c1[nH]c(C(=O)N[C@H]2CCC(F)(F)C2)cc1O[C@@H](C)c1ccccc1	Fold selectivity	X (Fold >2 and ≤50)
CCNC(=O)c1cc(OC(C)c2ccccc2C#N)c(C(=O)NC)[nH]1 (racemic)	Fold selectivity	— (Fold ≥0 and ≤2)
CNC(=O)c1[nH]c(C(=O)NC2CCC(F)(F)CC2)cc1OC(C)c1ccccc1 (single isomer, unassigned) [Example 104]	Fold selectivity	— (Fold ≥0 and ≤2)

Suppose we examine the molecule CCNC(=O)c1cc(OC(C)c2ccccc2Cl)c(C(=O)NC)[nH]1 (racemic) ; what Fold selectivity value has been reported?
X (Fold >2 and ≤50)

Same for CCNC(=O)c1cc(OC(C)c2ccnnc2)c(C(=O)NC)[nH]1 (single isomer, unassigned) [Example 78]
— (Fold ≥0 and ≤2)

Please answer likewise for `CNC(=O)c1[nH]c(C(=O)N[C@H]2CC[C@H](O)C2)cc1O[C@@H](C)c1ccccc1`
XX (Fold >50 and ≤200)
